assay: Oral exposure in cynomolgus monkeys, compound alone or with excipient in capsules; plasma by LC-MS/MS; type: in vivo; conditions: male, cynomolgus monkey, plasma, po, 100 mg, oral, enteric capsule, dose 100 mg, with 275 mg sodium phytate (Sigma-Aldrich), fasted; read-out: Cmax
measure-name: Cmax (ng/mL)
Answers are plain numbers, in ng/mL.

Lookup: Suppose we examine the molecule C[C@H](Nc1cc(Cl)nc2c1cnn2[C@@H]1O[C@H](COP(=O)(O)CP(=O)(O)O)[C@@H](O)[C@H]1O)c1ccccc1F [Ia (•3Na)] ; what Cmax value has been reported?
Found: 5760

====

test: Oral exposure in cynomolgus monkeys, compound alone or with excipient in capsules; plasma by LC-MS/MS; format: in vivo; settings: male, cynomolgus monkey, plasma, po, 50 mg, Table 2: oral, enteric capsule, dose 50 mg, neat; read-out: Cmax
measure-name: Cmax

Lookup: Suppose we examine the compound C[C@H](Nc1cc(Cl)nc2c1cnn2[C@@H]1O[C@H](COP(=O)(O)CP(=O)(O)O)[C@@H](O)[C@H]1O)c1ccccc1F [Ia (•3Na)] ; what Cmax value has been reported?
Found: 631 ng/mL
